System: Apple ring rot
Assay: Fungicidal activity assay, petri dish method
Type: cell-based
Conditions: 400 ppm, 25° C., after 4 days
Experimental: Petri dish method: The drug agent was dissolved with acetone, diluted with sterile water, and set to different levels of mass concentrations according to its activity. Under aseptic operation conditions, the pre-melted sterilized medium was quantitatively added into sterilized flasks according to the test treatment. The drug solutions were quantitatively aspirated in order from low to high concentrations, added into the above-mentioned flasks, and shaken well, respectively. […]
Reported Apple ring rot/% (mycelium growth inhibition rate) values for a set of molecules

The examples below pair each entry with its known result.
[[record]]
structure_notation = "CN1C[C@H](c2cc3ccccc3o2)[C@@H](C(=O)Nc2cnn(C)c2Cl)C1=O"
observed_result = "83%"

[[record]]
structure_notation = "CN1C[C@H](c2ccc3c(c2)OC(F)(F)O3)[C@@H](C(=O)Nc2cnn(C)c2Cl)C1=O"
observed_result = "65%"

[[record]]
structure_notation = "Cc1cc(C)cc([C@H]2CN(C)C(=O)[C@@H]2C(=O)Nc2cnn(C)c2Br)c1"
observed_result = "55%"

[[record]]
structure_notation = "Cc1cc(Cl)cc([C@H]2CN(C)C(=O)[C@@H]2C(=O)Nc2cnn(C)c2Cl)c1"
observed_result = "80%"


Then this molecule:
INPUT: Lab note: need Apple ring rot/% (mycelium growth inhibition rate) with Apple ring rot for entry "CN1C[C@H](c2ccc(C3CC3)cc2)[C@@H](C(=O)Nc2cnn(C)c2Cl)C1=O" , please look it up.
OUTPUT: 51%

====

Reported Huaidao (rice cultivar) plant damage level (growth control rate) values for a set of molecules
system: Huaidao (rice cultivar); test: Seedling stage sealing experiment for water-seeding (crop safety); type: in vivo; settings: 120 g a.i./ha, spray, seedling stage sealing for water-seeding, 15 days, fresh weight control rate
Give the value as a plain number.

INPUT: Any idea what its Huaidao (rice cultivar) plant damage level (growth control rate) is? The molecule is "CO/N=C/c1c(NC(=O)[C@H]2C(=O)N(C)C[C@@H]2c2cc(C)cc(C)c2)cnn1C"
OUTPUT: 0

====

Reported Echinochloa crusgalli activity level (growth control rate) values for a set of compounds
tested on: Echinochloa crusgalli; experiment: Seedling stage sealing experiment for water-seeding; type: in vivo; conditions: 120 g a.i./ha, seedling stage sealing, 15 days, fresh weight control rate
Give the value as a plain number.

[[record]]
compound = "Cc1cc(C)cc([C@H]2CN(C)C(=O)[C@@H]2C(=O)N(CC2CC2)c2cnn(C)c2Cl)c1 [367′]"
target_or_system = "Echinochloa crusgalli"
observed_result = 9


Then this compound:
INPUT: Any idea what its Echinochloa crusgalli activity level (growth control rate) is? The compound is CN1CC(c2cc(F)cc(F)c2)C(C(=O)Nc2cnn(C)c2Cl)C1=O (stereo not shown) [Compound 115]
OUTPUT: 9

====

Reported Tomato gray mold/% (mycelium growth inhibition rate) values for a set of compounds
test system: Tomato gray mold; test: Fungicidal activity assay, petri dish method; assay type: cell-based; settings: 400 ppm, 25° C., after 4 days
Enter your answer as a number in %; do not include the unit.

The examples below pair each entry with its known result.
[[record]]
structure_notation = "CN1C[C@H](c2cc3ccccc3o2)[C@@H](C(=O)Nc2cnn(C)c2Cl)C1=O"
observed_result = 57

[[record]]
structure_notation = "CN1C[C@H](c2ccc(C3CC3)cc2)[C@@H](C(=O)Nc2cnn(C)c2Cl)C1=O"
observed_result = 80

[[record]]
structure_notation = "C=CCn1ncc(NC(=O)[C@H]2C(=O)N(C)C[C@@H]2c2cc(C)cc(C)c2)c1Cl"
observed_result = 51

[[record]]
structure_notation = "Cc1cc(C)cc([C@H]2CN(C)C(=O)[C@@H]2C(=O)Nc2cnn(C)c2Br)c1"
observed_result = 68


Then this compound:
INPUT: Lab note: need Tomato gray mold/% (mycelium growth inhibition rate) with Tomato gray mold for entry "CN1C[C@H](c2ccc3c(c2)OC(F)(F)O3)[C@@H](C(=O)Nc2cnn(C)c2Cl)C1=O" , please look it up.
OUTPUT: 80

====

Reported Huaidao (rice cultivar) plant damage level (growth control rate) values for a set of compounds
tested on: Huaidao (rice cultivar); assay: Seedling stage sealing experiment for water-seeding (crop safety); format: in vivo; conditions: 120 g a.i./ha, spray, seedling stage sealing for water-seeding, 15 days, fresh weight control rate
Give the value as a plain number.

The examples below pair each entry with its known result.
[[record]]
compound = "CN1C[C@H](c2cc(Br)cc(C(F)F)c2)[C@@H](C(=O)Nc2cnn(C)c2C2CC2)C1=O"
target_or_system = "Huaidao (rice cultivar)"
observed_result = 0

[[record]]
compound = "Cc1cc(C2CN(C)C(=O)C2C(=O)Nc2cnn(C)c2C(F)(F)F)cc(C)c1C (centres unmarked)"
target_or_system = "Huaidao (rice cultivar)"
observed_result = 0

[[record]]
compound = "CCn1ncc(NC(=O)[C@H]2C(=O)N(C)C[C@@H]2c2cccc(C)c2)c1F"
target_or_system = "Huaidao (rice cultivar)"
observed_result = 0

[[record]]
compound = "Cc1cc([C@H]2CN(C)C(=O)[C@@H]2C(=O)Nc2cnn(C)c2Cl)cc(C)c1C"
target_or_system = "Huaidao (rice cultivar)"
observed_result = 0

[[record]]
compound = "Cc1cccc([C@H]2CN(C)C(=O)[C@@H]2C(=O)Nc2cnn(C(=O)OC(C)(C)C)c2Cl)c1"
target_or_system = "Huaidao (rice cultivar)"
observed_result = 0


INPUT: Any idea what its Huaidao (rice cultivar) plant damage level (growth control rate) is? The compound is "Cc1cc(Cl)cc([C@H]2CN(C)C(=O)[C@@H]2C(=O)Nc2cnn(C)c2C2CC2)c1"
OUTPUT: 0

INPUT: What about this compound? "CN1C[C@H](c2cc(Br)cc(C(F)F)c2)[C@@H](C(=O)Nc2cnn(C)c2Cl)C1=O"
OUTPUT: 0

INPUT: What about this compound? "CN1C[C@H](c2cc(Br)cc(C(F)F)c2)[C@@H](C(=O)Nc2cnn(C(F)F)c2Cl)C1=O"
OUTPUT: 0

INPUT: What about this compound? "C=Cc1c(NC(=O)[C@H]2C(=O)N(C)C[C@@H]2c2cc(C)cc(C)c2)cnn1C(F)F"
OUTPUT: 0

INPUT: What about this compound? "Cc1cc(C)cc([C@H]2CN(C)C(=O)[C@@H]2C(=O)Nc2cnn(C)c2CO)c1"
OUTPUT: 0

INPUT: What about this compound? "C=Cc1c(NC(=O)[C@H]2C(=O)N(C)C[C@@H]2c2cccc(C)c2)cnn1C(F)F"
OUTPUT: 0

INPUT: What about this compound? "COc1cccc([C@H]2CN(C)C(=O)[C@@H]2C(=O)Nc2cnn(C)c2C(F)(F)F)c1"
OUTPUT: 0

INPUT: What about this compound? "Cc1cccc([C@H]2CN(C)C(=O)[C@@H]2C(=O)Nc2cnn(C(C)C)c2C(F)(F)F)c1"
OUTPUT: 0

====

test system: Spodoptera frugiperda; assay: Insecticidal activity assay, spraying method; assay type: in vivo; conditions: 500 ppm, 2nd instar, spray, 48 h after drug application
MEASURED_METRIC: Spodoptera frugiperda/% (mortality) (%)
Enter your answer as a number in %; do not include the unit.

[[record]]
compound = "C=CCn1ncc(NC(=O)[C@H]2C(=O)N(C)C[C@@H]2c2cc(C)cc(C)c2)c1Cl [270′]"
observed_result = 55

[[record]]
compound = "Cc1cc(C)cc([C@H]2CN(C)C(=O)[C@@H]2C(=O)Nc2cnn(C)c2C=O)c1 [500′]"
observed_result = 60

[[record]]
compound = "C#CCn1ncc(NC(=O)[C@H]2C(=O)N(C)C[C@@H]2c2cc(C)cc(C)c2)c1Cl [420′]"
observed_result = 75

[[record]]
compound = "Cc1cc(C)cc([C@H]2CN(C)C(=O)[C@@H]2C(=O)Nc2cnn(-c3ccccc3)c2Cl)c1 [421′]"
observed_result = 65

[[record]]
compound = "Cc1cc(C)cc([C@H]2CN(C)C(=O)[C@@H]2C(=O)Nc2cnn(C(=O)OC(C)(C)C)c2Cl)c1 [491′]"
observed_result = 60


Then this compound:
INPUT: Lab note: need Spodoptera frugiperda/% (mortality) with Spodoptera frugiperda for entry Cc1ccc([C@H]2CN(C)C(=O)[C@@H]2C(=O)Nc2cnn(C)c2Cl)o1 [522′] , please look it up.
OUTPUT: 60

====

test system: Rice sheath blight; assay: Fungicidal activity assay, petri dish method; type: cell-based; conditions: 400 ppm, 25° C., after 4 days
MEASURED_METRIC: Rice sheath blight/% (mycelium growth inhibition rate) (%)
Enter your answer as a number in %; do not include the unit.

[[record]]
structure_notation = "CN1C[C@H](c2ccc(C3CC3)cc2)[C@@H](C(=O)Nc2cnn(C)c2Cl)C1=O"
unit_abbreviation = "%"
observed_result = 59

[[record]]
structure_notation = "CN1C[C@H](c2ccc3c(c2)OC(F)(F)O3)[C@@H](C(=O)Nc2cnn(C)c2Cl)C1=O"
unit_abbreviation = "%"
observed_result = 50

[[record]]
structure_notation = "Cc1cc(Cl)cc([C@H]2CN(C)C(=O)[C@@H]2C(=O)Nc2cnn(C)c2Cl)c1"
unit_abbreviation = "%"
observed_result = 83


INPUT: Any idea what its Rice sheath blight/% (mycelium growth inhibition rate) is? The compound is "Cc1cc(C)cc([C@H]2CN(C)C(=O)[C@@H]2C(=O)Nc2cnn(C)c2Br)c1"
OUTPUT: 56

INPUT: What about this compound? "C=CCn1ncc(NC(=O)[C@H]2C(=O)N(C)C[C@@H]2c2cc(C)cc(C)c2)c1Cl"
OUTPUT: 61
